- System: MS2 coat protein
- method-description: apparent Kd, MS2 coat protein; higher = weaker binding; RNA-MaP array; FMN 200 µM where present
- test-settings: designed as: OFF switch for flavin mononucleotide; no ligand
Outcome label depends on apparent Kd relative to 30 nM: at/above gives True, below gives False.

[[record]]
chain = "CGCUCAAUUCUUUAGGUUAGAAUCAGAAGGCGUAACAUGAGGAUCACCCAUGUAUAGAAGUGUAACGAGGAUAUGAAUUGAGCG"
tgt = "MS2 coat protein"
category = "False"

[[record]]
chain = "UCCUCACAUGAGGAUCACCCAUGUUAGGAUAUCUCGGUGCCCUGCAGGCAGUGGCACCAGAGAAGGAACGUGCA"
tgt = "MS2 coat protein"
category = "False"

[[record]]
chain = "GGACAGUCAGGAUAUACAUGAGGAUCACCCAUGUUGAGAUGUGAAAGGGCGGGAGUAGGUAGAAGGGACGAGAG"
tgt = "MS2 coat protein"
category = "True"

[[record]]
chain = "UAGAGUCUUGAGGAUAUUGGUACGUACCGGUCCCAAGAAGGCGAGACAUGAGGAUCACCCAUGUGACCGUGAGC"
tgt = "MS2 coat protein"
category = "True"

[[record]]
chain = "ACGGCAGUCGAAGGAUAUGGUUACAUGAGGAUCACCCAUGUCUAGGGUCUAAUUAGGUAUAAUUACCAGAAGGUCGAAGGCCUA"
tgt = "MS2 coat protein"
category = "True"

[[record]]
chain = "UCUUAUUGCAAGGAUAUGCAAAUUAUUUUUUAAGCAGAAGGUGCAACAUGAGGAUCACCCAUGUUUCCGGGCAA"
tgt = "MS2 coat protein"
category = "False"


Entry source: the EternaBench riboswitch data
